- protocol description: Plasma Piroxicam after gavage, 3-day calcium threonate pretreatment (Example 13)
- Assay type: in vivo, Wistar derived Albino rats
- test settings: rat, po, 0.6 mg/kg, 8 hrs post-dosing on day 4, group average, read-out: Piroxicam Plasma Concentration, average (X)
property label: concentration at 8 h
Value and unit, in that order.

## Task Given the entry CN1C(C(=O)Nc2ccccn2)=C(O)c2ccccc2S1(=O)=O [Prioxicam] , report its measured concentration at 8 h.
## Result 1100 ng/mL

====

- protocol description: Plasma Piroxicam after gavage, combined administration with calcium threonate (Example 12)
- Type: in vivo, Wistar derived albino rats
- test settings: rat, plasma, po, 0.6 mg/kg, 6 hours after dosing; group average; read-out: Plasma Piroxicam Concentration, average (X)
property label: concentration at 6 h (ng/mL)
I only need the number, in ng/mL, no unit after it.

## Task Given the entry CN1C(C(=O)Nc2ccccn2)=C(O)c2ccccc2S1(=O)=O , report its measured concentration at 6 h.
## Result 1700
